system: SF-268 CNS; experiment: NCI tumour cell line growth inhibition, 48 h
endpoint: TGI

Illustrative cases are given below, each with its answer.
| molecule | TGI |
| --- | --- |
| Fc1ccc(C2SCc3nc4ccccc4n32)cc1Cl (stereo not given) | > 100 µM |
| O=C(N/N=C\c1cccc(O)c1)c1ccncc1 | > 100 µM |

Any idea what its TGI is? The molecule is `N#C/C(=C\c1cc2ccccc2c2ccccc12)c1ccccc1`
> 53.9 µM

Any idea what its TGI is? The molecule is CCc1c(C)c(C#N)c(=S)n(C2OC(COC(C)=O)C(OC(C)=O)C(OC(C)=O)C2OC(C)=O)c1C (stereo not given)
> 100 µM

Any idea what its TGI is? The molecule is C/C=C1/C(=C/c2[nH]c(/C=c3\[nH]/c(=C/C4=NC(=O)C(CC)=C4C)c(C)c3CCC(=O)O)c(CCC(=O)O)c2C)NC(=O)C1C (stereo not given)
> 150 µg/mL

---

system: RXF 393 renal; test: NCI tumour cell line growth inhibition, 48 h
endpoint: TGI (µM)
Give just the number in µM; leave the unit off.

| compound | target system | observed |
| --- | --- | --- |
| Cc1ccc(NC(=S)N/N=C(/c2ccccc2)c2ccccn2)cc1 | RXF 393 renal | 12.7 |
| O=S1(=O)N(CCNc2nccc(-c3c(-c4cccc(O)c4)nc4sccn34)n2)CCN1Cc1ccccc1 | RXF 393 renal | 9.37 |
| Cn1c2ccccc2c2c3[nH]c(=O)[nH]c(=O)c3c3c4ccccc4n(C)c3c21 | RXF 393 renal | 5.25 |
| COc1ccc(OC)c(C(=O)c2oc3ccc(Br)cc3c2N)c1 | RXF 393 renal | 1.69 |

Any idea what its TGI is? The compound is C=C[C@H]1C[C@@H]2C[C@@H]3[C@H]4C/C=C\C(=O)NCCCC5NC(=O)C(=C(O)/C=C/[C@@H]4CC(=O)[C@H]3[C@@H]2[C@H]1C)C5=O (some centres undefined)
0.308

Any idea what its TGI is? The compound is `COc1cc(OC)c2c(=O)c(OC)c(-c3ccc4c(c3)OCO4)oc2c1`
72.6

Any idea what its TGI is? The compound is COc1cccc(N2C(=O)[C@H]3CC(C)c4c([nH]c5ccccc45)[C@H]3C2=O)c1 (some centres undefined)
38.8

Any idea what its TGI is? The compound is `Cc1ccc(C(=O)Nc2ccc(CN3CCN(C)CC3)c(C(F)(F)F)c2)cc1C#Cc1cnc(N)c2ccccc12`
1.06

Any idea what its TGI is? The compound is `CC[CH2][Sn]([Cl])([Cl])[CH2]CC.Oc1ccccc1C=NCCN=Cc1ccccc1O`
8.11

Any idea what its TGI is? The compound is `CCCCCCCCCCN(CCCCCCCCCC)C(=O)COc1c2cc(C(C)(C)C)cc1Cc1cc(C(C)(C)C)cc(c1OCC(=O)N(CCCCCCCCCC)CCCCCCCCCC)Cc1cc(C(C)(C)C)cc(c1OCC(=O)N(CCCCCCCCCC)CCCCCCCCCC)Cc1cc(C(C)(C)C)cc(c1OCC(=O)N(CCCCCCCCCC)CCCCCCCCCC)C2`
22.3

Any idea what its TGI is? The compound is COc1ccc(C2SCC(=O)N2NC(=O)Nc2c(C)nc3ccccn23)cc1 (centres undefined)
69.3

Any idea what its TGI is? The compound is `COc1ccc(CCN2CCN(CCc3ccc(OC)cc3)CC2)cc1`
95.1

Any idea what its TGI is? The compound is `N#Cc1c(Cl)c2cc([N+](=O)[O-])ccc2n2c1nc1ccccc12`
5.39
